The measured values listed here are drawn from ChEMBL document CHEMBL5233228.

# targetUnderTest: Cell division protein FtsZ (Staphylococcus aureus)
# Sequence (P0A031 whole entry): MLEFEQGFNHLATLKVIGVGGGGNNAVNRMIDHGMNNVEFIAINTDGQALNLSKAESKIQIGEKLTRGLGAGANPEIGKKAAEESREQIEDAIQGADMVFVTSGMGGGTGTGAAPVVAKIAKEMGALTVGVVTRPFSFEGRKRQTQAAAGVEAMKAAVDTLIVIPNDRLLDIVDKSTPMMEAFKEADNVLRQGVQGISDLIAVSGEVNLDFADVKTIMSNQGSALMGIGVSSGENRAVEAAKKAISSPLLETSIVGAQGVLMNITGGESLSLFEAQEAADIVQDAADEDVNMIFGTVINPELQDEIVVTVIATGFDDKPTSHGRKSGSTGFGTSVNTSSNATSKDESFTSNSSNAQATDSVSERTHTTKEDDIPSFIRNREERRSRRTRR
# procedureText: Inhibition of Staphylococcus aureus recombinant FTsZ preincubated for 10 mins followed by compound addition measured after 30 mins by Cytophos phosphate assay

{"columns": ["molecule", "IC50 [µM]"],
 "data": [
  ["COc1ccc2cc3[n+](cc2c1OC)CCc1cc2c(cc1-3)OCO2 [BERBERINE]", 10],
  ["Cc1nc(-c2cccs2)cc([C@H]2CN3CC[C@H]2C[C@@H]3CNC(=O)CCCC(=O)O)n1", 317],
  ["CCC(CC)c1cc([C@H]2CN3CC[C@H]2C[C@@H]3CNCc2ccco2)nc(-c2ccncc2)n1", 55.7],
  ["CCC(CC)c1cc([C@H]2CN3CC[C@H]2C[C@@H]3CNCc2ccc(CO)o2)nc(-c2ccncc2)n1", 77.2]
]}
